molecular target: Toll-like receptor 8 (Homo sapiens, UniProt Q9NR97); test: Agonist activity at human TLR8 expressed in HEK-blue TLR cells measured for 18 to 19 hrs by SEAP reporter gene based assay; type: cell-based; settings: hek-blue tlr
Sequence (Q9NR97 whole entry): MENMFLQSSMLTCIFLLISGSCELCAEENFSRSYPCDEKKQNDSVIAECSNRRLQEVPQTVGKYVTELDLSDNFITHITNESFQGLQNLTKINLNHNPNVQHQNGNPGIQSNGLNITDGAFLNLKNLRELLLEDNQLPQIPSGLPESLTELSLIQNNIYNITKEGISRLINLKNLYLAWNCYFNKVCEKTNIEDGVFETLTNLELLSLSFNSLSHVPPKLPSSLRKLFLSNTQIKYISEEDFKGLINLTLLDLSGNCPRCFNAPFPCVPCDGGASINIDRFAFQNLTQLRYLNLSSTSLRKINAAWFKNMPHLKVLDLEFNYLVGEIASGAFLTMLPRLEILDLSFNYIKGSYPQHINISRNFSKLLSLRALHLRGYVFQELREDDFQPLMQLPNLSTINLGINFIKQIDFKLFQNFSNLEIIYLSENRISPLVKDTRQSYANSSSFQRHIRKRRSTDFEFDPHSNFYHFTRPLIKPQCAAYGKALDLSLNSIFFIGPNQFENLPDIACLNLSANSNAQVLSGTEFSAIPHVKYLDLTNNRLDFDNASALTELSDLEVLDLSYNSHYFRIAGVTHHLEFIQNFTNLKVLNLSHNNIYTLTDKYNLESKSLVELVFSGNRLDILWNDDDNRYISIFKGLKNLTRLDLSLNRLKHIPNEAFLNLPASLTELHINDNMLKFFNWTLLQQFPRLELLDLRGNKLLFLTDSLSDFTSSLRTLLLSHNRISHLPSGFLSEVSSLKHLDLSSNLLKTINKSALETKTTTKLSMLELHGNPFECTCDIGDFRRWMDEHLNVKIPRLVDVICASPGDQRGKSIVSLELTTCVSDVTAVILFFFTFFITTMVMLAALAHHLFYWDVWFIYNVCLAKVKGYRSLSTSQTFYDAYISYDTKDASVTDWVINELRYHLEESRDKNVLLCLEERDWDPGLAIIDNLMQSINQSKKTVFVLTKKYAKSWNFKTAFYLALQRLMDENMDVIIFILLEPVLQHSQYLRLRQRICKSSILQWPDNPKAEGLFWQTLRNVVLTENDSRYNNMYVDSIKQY
experimental_endpoint: EC50

[[record]]
mol_smiles = "CCCCNc1nc(N)nc2ncn(Cc3ccc(CN4CCN(C)CC4)cc3OC)c12"
result = "< 10 µM"


Every entry's value here was drawn from ChEMBL document CHEMBL5512680.
